- assayText: Dissociation constant, pKa of the compound
- Format: physicochemical
measure: pKa

1. Cc1sc2c(c1C)C(c1ccc(Cl)cc1)=N[C@@H](CC(=O)NCCCN1CCN(CCCNc3cccc4c3C(=O)N(C3CCC(=O)NC3=O)C4=O)CC1)c1nnc(C)n1-2 (some centres not stated)
2. Cc1sc2c(c1C)C(c1ccc(Cl)cc1)=N[C@@H](CC(=O)NCCCCCCCCNc1cccc3c1C(=O)N(C1CCC(=O)NC1=O)C3=O)c1nnc(C)n1-2 (some centres not stated)
**Q:** Could you kindly indicate whether 1 or 2 has the higher pKa value? Answer format: the label of the selected item.
**A:** 2

---

- assayText: Kinetic solubility of the compound incubated for 60 mins under shaking condition by UHPLC-MS analysis
- Assay type: physicochemical
- conditions: 1 h
measure: log(Kinetic_solubility)

Recorded log(Kinetic_solubility), per entry:
- compound: "O=C1CCC(N2C(=O)c3cccc(NCCOCCOCC(=O)N4CCN(C(=O)c5cc(Cc6n[nH]c(=O)c7ccccc67)ccc5F)CC4)c3C2=O)C(=O)N1 (stereo not given)"
  numericValue: -4.19
- compound: "Cc1ncsc1-c1ccc(CNC(=O)[C@@H]2C[C@@H](O)CN2C(=O)[C@@H](NC(=O)COCCOCCOCC(=O)N[C@H](C(=O)N2C[C@H](O)C[C@H]2C(=O)NCc2ccc(-c3scnc3C)cc2)C(C)(C)C)C(C)(C)C)cc1"
  numericValue: -3.98

I. Cc1ncsc1-c1ccc([C@H](C)NC(=O)[C@@H]2C[C@@H](O)CN2C(=O)[C@@H](NC(=O)CCCCNC(=O)COc2c(-c3csc(N4CCOCC4)n3)ccc(F)c2F)C(C)(C)C)cc1
II. Cn1c(=O)n(C)c2cc(CNCCOCCOCCNCC3CCN(c4ccc(C(=O)N[C@H]5CC[C@H](Oc6ccc(C#N)c(Cl)c6)CC5)nn4)CC3)ccc21
**Q:** Kindly identify the item with the lower log(Kinetic_solubility) figure among these two: I and II Answer format: the label of the selected item.
**A:** I
(I: -4.72, II: -3.06)

---

- assayText: Distribution coefficient, logD of compound in n-Octanol/PBS at pH 7.4 incubated for 30 mins under shaking condition by UHPLC-MS analysis
- Assay type: physicochemical
Non-standard residues stand in square brackets, D forms with d. Residues, ends and D or L forms follow the SMILES beside them. *: point of attachment. X2 = O=C(NCCCCCCN*)c1cccc2sc(N3CCOCC3)nc12; Dip = N[C@H](C(=O)O)C(c1ccccc1)c1ccccc1; Chg = N[C@H](C(=O)O)C1CCCCC1; NMeA = CN[C@@H](C)C(=O)O
measure: logD at 0.5 h

- molecule: "CN[C@@H](C)C(=O)N[C@H](C(=O)N1CCC[C@H]1C(=O)N[C@H](C(=O)NCCCCCCNC(=O)c1cccc2sc(N3CCOCC3)nc12)C(c1ccccc1)c1ccccc1)C1CCCCC1 (H-[NMeA][Chg]P[Dip]-X2)"
  measure: "logD at 0.5 h"
  numericValue: 5.1
- molecule: "Cc1ncsc1-c1ccc([C@H](C)NC(=O)[C@@H]2C[C@@H](O)CN2C(=O)[C@@H](NC(=O)CNCCOCCOc2c(-c3csc(N4CCOCC4)n3)ccc(F)c2F)C(C)(C)C)cc1"
  measure: "logD at 0.5 h"
  numericValue: 5.2
- molecule: "CCOC(=O)c1c(C)n(Cc2ccccc2)c2ccc(OCCCCCCC(=O)N[C@H](C(=O)N3C[C@H](O)C[C@H]3C(=O)N[C@@H](C)c3ccc(-c4scnc4C)cc3)C(C)(C)C)cc12"
  measure: "logD at 0.5 h"
  numericValue: 5.15
